Tested on: Plasmodium falciparum
Assay: GSK_TCMDC: Inhibition of Plasmodium falciparum 3D7 in whole red blood cells, using parasite LDH activity as an index of growth. Test compounds present at 2uM
Assay type: functional
Collected Inhibition values appear next to each entry.

molecule	Inhibition
CCc1ccc(CN2CCC(CNC(=O)c3cc(-c4cccc(Cl)c4)cs3)C2)cc1.O=C(O)C(F)(F)F (stereo not drawn)	88%
O=C(NC1CCCCC1)N(Cc1ccccc1-c1ccc(CNCCc2ccccc2)cc1)C1CCN(Cc2ccccc2)CC1.O=C(O)C(F)(F)F	90%
COC(=O)c1ccc(NC(=O)c2ccc(CCN3CCC(c4nc(COCC(F)(F)F)c(-c5ccc(F)cc5)o4)CC3)cc2)cc1	89%
Cc1ccc(C(=O)Nc2cccc(CN3CCCN(Cc4ccc(O)cc4)CC3)c2)s1.O=C(O)C(F)(F)F	90%
Cc1ccc(NC(=O)c2ccc3ncccc3c2)cc1OC1CCN(Cc2ccsc2)C1.O=C(O)C(F)(F)F (stereo not drawn)	88%
COc1cc2c(cc1S(=O)(=O)c1ccc(NC(=O)c3cccc(C(F)(F)F)c3)cc1)CCN(C)CC2	92%
COc1ccc(Cn2c(N3CCN(S(=O)(=O)c4ccc(OC)cc4)CC3)nc3c2c(=O)n(CC2CC2)c(=O)n3CC2CC2)cc1	92%
CC1=C(C(=O)OCCOCc2ccccc2)C(c2ccccc2C(F)(F)F)C(C(=O)OCCOCc2ccccc2)=C(C)N1	89%

----------
Tested on: Plasmodium falciparum
Assay: GSK_TCMDC: Inhibition of Plasmodium falciparum Dd2 in whole red blood cells, using parasite LDH activity as an index of growth. Test compounds present at 2uM
Format: functional
Overview of recorded Inhibition for various compounds

structure	measure.unit	Inhibition
Cc1ccc(C(C)C)cc1CON1C(=N)N=C(N)NC1(C)C.Cl	%	92
Cc1cc(=NN=Cc2ccccc2F)c2cccc(C)c2[nH]1	%	14
COc1cc(OC)c2c(c1Cl)O[C@]1(C2=O)C(=O)C(Cc2ccccc2)(Cc2ccccc2)C(=O)C[C@H]1C	%	45
CN1CCN(c2ccc(-c3cc(-c4cc(F)c(F)c(F)c4)cnc3N)cc2)CC1	%	12
Cn1cncc1C(=O)Nc1ccc(-c2cccc(-c3nc4cc(C(F)(F)F)ccc4[nH]3)c2)cc1	%	3

----------
Test system: HepG2
Test: GSK_TCMDC: Percent inhibition of human HepG2 cell line. Test compounds present at 10uM.
Assay type: functional
Think of 40% as a floor: if Inhibition stands on it or above, it is true; beneath it, false.

compound	answer.label
O=C(Nc1cccc(-c2csc(-c3nc4ccccc4[nH]3)c2)c1)c1ccoc1	false
O=C(/C=C/c1ccc(-c2ccccc2)cc1)NCCCCCN1CCC(c2c[nH]c3ccccc23)CC1	true
O=C(/C=C/c1ccc(Cl)c(Cl)c1)NCCCCCN1CCC(NC(=O)c2ccc([N+](=O)[O-])cc2)CC1	false
O=C(NCc1ccc(Cl)c(Cl)c1)c1cccc(C2CCCN(Cc3ccc4[nH]cnc4c3)C2)c1 (stereo not given)	false
CN(Cc1ccccc1)C(=O)CCNS(=O)(=O)c1cc(Br)cnc1N	false
CN(c1ccc2c(c1)nc(NC(=O)C1(c3cc(F)ccc3F)CC1)n2C)c1ccnc(Nc2cccc(CS(C)(=O)=O)c2)n1.O=C(O)C(F)(F)F	true
O=C(NCCN1CCCC1)c1cccc(-c2ccc(-c3nc4cc(C(F)(F)F)ccc4[nH]3)cc2)c1	false
Cl.Oc1cc(-c2nc(-c3ccccc3)[nH]c2-c2ccncc2)ccc1Cl	true
O=C(/C=C/c1ccc([N+](=O)[O-])cc1)N1CCC(NS(=O)(=O)c2ccc(Br)cc2)CC1	false
CC(C)(CNCc1cc(Cl)cc(Cl)c1)c1nc(-c2ccnc(N)n2)c(-c2ccc(Cl)c(O)c2)[nH]1.Cl	true

----------
Test system: Plasmodium falciparum
Assay: GSK_TCMDC: Inhibition of Plasmodium falciparum Dd2 in whole red blood cells, using parasite LDH activity as an index of growth. Test compounds present at 2uM
Assay type: functional
Below, each entry is listed alongside its reported Inhibition.
experimental.readout: Inhibition (%)

compound	quantitative.readout
COc1ccc(NC(=O)Nc2ccc(-c3ccccc3)cc2)cc1Cn1cnc(N2CCCNCC2)cc1=O.O=C(O)C(F)(F)F	38
CC(C)Oc1ccc2c(c1)OC(c1ccccc1)(C(F)(F)F)NC2=O (stereo not drawn)	98
Cc1cccc2nc(-c3ccc(-c4ccc(CN5CCCC5CN)cc4)cc3)[nH]c12.O=C(O)C(F)(F)F (stereo not drawn)	65
CS(=O)(=O)O.Nc1nc(NCC2CCC(CNS(=O)(=O)c3cccc4ccccc34)CC2)nc2ccccc12 (stereo not drawn)	42
CCn1cc(CN2CCCC(C(=O)Nc3ccc(-c4nc5ccccc5[nH]4)cc3)C2)cn1 (stereo not drawn)	26
CC1CCCN(Cc2c(O)ccc3c(O)c(-c4nc5ccccc5s4)c(=N)oc23)C1 (stereo not drawn)	99
CCCCOC(=O)C1=C(C)NC2=C(C(=O)CCC2)C1c1ccc(OC)c(Br)c1 (stereo not drawn)	87
CCN(CC)S(=O)(=O)n1ncc2c3c(N)nc(N)nc3ccc21.Cl	16

----------
System: Plasmodium falciparum
Experiment: GSK_TCMDC: Inhibition of Plasmodium falciparum Dd2 in whole red blood cells, using parasite LDH activity as an index of growth. Test compounds present at 2uM
Type: functional

compound	measure.unit	Inhibition
Cc1cc(N/N=C/c2ccccc2[N+](=O)[O-])c2ccccc2n1	%	100
N=C(N)NC(=O)Nc1cc(Br)c(Cl)c(Br)c1	%	83
CCCN(CCC)C(=O)c1cc(C(=O)N[C@@H](Cc2ccccc2)[C@H](O)CNC(C)(C)c2cccc(C(F)(F)F)c2)cc(N2CCCCS2(=O)=O)c1	%	98
O=C(Cc1ccc(Cl)cc1)NC1CCN(c2ccnc3cc(Cl)ccc23)C1.O=C(O)C(F)(F)F (centres undefined)	%	99
Cc1cc(=O)c(-c2ccc(OCc3ccc(OC(F)(F)F)cc3)cc2)c(C)[nH]1	%	92
O=C(Nc1ccc([N+](=O)[O-])cc1)Nc1nc2ccc(Cl)cc2s1	%	33
CC(C)CCNCc1ccc(OCc2cccc(COc3ccc(CNCCC(C)C)cc3I)c2)c(I)c1.Cl	%	49
COc1ccc2ncc(F)c([C@H](O)CN3CCC(NCc4ccc5c(c4)NC(=O)CO5)CC3)c2c1.Cl	%	100
O=C(O)C(F)(F)F.c1ccc(CN2CCC(NCc3ccccc3-c3cccc(CNCc4ccc5c(c4)OCO5)c3)CC2)cc1	%	69
Cc1cccc2nc(-c3ccc(-c4cccc(NC(=O)C(=O)c5cccn5C)c4)cc3)[nH]c12	%	17
CCN(CCCN1CCCCC1)c1cc(C)nc(Nc2ccc(C)c(F)c2)n1.O=C(O)C(F)(F)F	%	92
COc1cc(OC)cc(C(=O)Nc2nc(-c3ccccn3)cs2)c1	%	72
CC(C)CCNCc1c(O)ccc2ccccc12	%	51
Cc1cc2nc(-c3ccc(/C=C/C(=O)NCc4ccc(Cl)c(Cl)c4)cc3)[nH]c2cc1C	%	83

----------
Tested on: Plasmodium falciparum
Assay: GSK_TCMDC: Inhibition of Plasmodium falciparum Dd2 in whole red blood cells, using parasite LDH activity as an index of growth. Test compounds present at 2uM
Format: functional
experimental.readout: Inhibition

compound	tested.system	result
CCc1cc2c(O)c([N+](=O)[O-])c(=O)oc2cc1OCCCCCOc1cc2oc(=O)c([N+](=O)[O-])c(O)c2cc1CC	Plasmodium falciparum	0%
O=C(/C=C/c1ccc(Cl)c(Cl)c1)NCCCCCN1CCC(C(=O)Nc2ccc(Cl)c(Cl)c2)CC1	Plasmodium falciparum	0%
O=C(NC12CC3CC(CC(C3)C1)C2)C(=O)c1c[nH]c2ccccc12	Plasmodium falciparum	2%
COc1ccc(CC(Cc2ccc(OC)cc2)NCC(O)c2cccc(Cl)c2)cc1 (stereo not given)	Plasmodium falciparum	98%
COc1ccc2c(NN=Cc3cccc(Cl)c3)ccnc2c1	Plasmodium falciparum	94%

----------
Below, each entry is listed with its recorded Inhibition.
Tested on: HepG2
Experiment: GSK_TCMDC: Percent inhibition of human HepG2 cell line. Test compounds present at 10uM.
Type: functional

molecule	Inhibition [%]
CN(C)c1ccc(C=CC(=O)NC(=O)c2ccccc2O)cc1	6
COc1ccc(NC(=O)c2ccc(Br)c(C)c2)cc1N1CCN(CCCCc2ccccc2)CC1.O=C(O)C(=O)O	29
O=C(Nc1cc(F)c(F)c(-c2cccnc2)c1)N1CCc2cc(Cl)c(Cl)cc21	0
CCn1cnc2c(Nc3cccc([N+](=O)[O-])c3)nc(N3CCC(N4CCCCC4)CC3)nc21	31
O=C(Cn1cnc2c(nnn2Cc2ccccc2F)c1=O)Nc1ccc2c(c1)OCCO2	0
COc1cccc(NC(=O)c2cc(Br)cc(N3CCN(c4ccncc4)CC3)c2)c1.O=C(O)C(F)(F)F	30
c1ccc(CCNc2nc(NCC(c3ccccc3)c3ccccc3)c3nc[nH]c3n2)cc1	9
Cc1ccc(/C=C/C(=O)NC2CCC(N3CCC(c4ccccc4C)CC3)CC2)cc1C (stereo not given)	12
CC(C)CCCC(C)NC[C@@H](O)[C@H](Cc1ccccc1)NC(=O)c1cc(N2CCCC2=O)cc(N(c2ccccc2)S(C)(=O)=O)c1 (stereo not given in full)	17
COc1cc(-c2nc(-c3ccncc3)c(-c3ccc4c(c3)CCC4=NO)[nH]2)ccc1OCCN1CCCCC1.Cl	75
Cl.N=C(N)Nc1ccc(OCCCCCOc2ccc(NC(=N)N)cc2)cc1	12
O=C(N/N=C/c1nc2ccccc2[nH]1)c1cccc([N+](=O)[O-])c1	0
CCc1cn2c3c(cc(C(=O)N[C@@H](Cc4cc(F)cc(F)c4)[C@H](O)CNC4CCCCC4)cc13)N(C)S(=O)(=O)CC2.O=CO	9
Clc1ccc(OCc2ccccc2)c(-c2nc(-c3nc4ccc(Cl)cc4[nH]3)cs2)c1	0
Brc1ccc(Nc2nc(NCC3CCCO3)c3ccccc3n2)cc1 (stereo not given)	13
